Reference source: patent US9957257B2

- EXPERIMENTAL_DETAILS: Rodent brain penetration study
- Type: in vivo, Male Wistar rats
- MEASUREMENT_CONDITIONS: male, Wistar, rat, 3 mg/kg, oral (gavage), read-out: Single dose Brain Penetration (Cb/Cp)
PROPERTY_NAME: Kp

Answered examples (3):
compound=CC(C)(O)CN1CCC(F)(CNC(=O)c2cc(Br)c(N)c3c2OCCC3)CC1.O=C(O)C(O)C(O)C(=O)O endpoint_result=1
compound=CC(C)(O)CN1CCC(F)(CNC(=O)c2cc(Cl)c(N)c3ccoc23)CC1 endpoint_result=1.48
compound="Nc1c(Cl)cc(C(=O)NCC2C3CN(CC4CCOCC4)CC23)c2c1CCCO2.O=C(O)C(O)C(O)C(=O)O (centres unmarked)" endpoint_result=1.03

(P) CC(C)(O)CN1CCC(F)(CNC(=O)c2cc(Cl)c(N)c3c2OCCC3)CC1.O=C(O)C(O)C(O)C(=O)O
(Q) Cc1cc2c(N)c(Cl)cc(C(=O)NCC3(F)CCN(CC(C)(C)O)CC3)c2o1.O=C(O)C(O)C(O)C(=O)O
Looking at P and Q , which one comes out lower in Kp terms? Please indicate the selected item by its label.
P
(P: 0.78, Q: 2.53)

###

- EXPERIMENTAL_DETAILS: Rodent pharmacokinetic study
- Assay type: in vivo, Male wistar rats
- MEASUREMENT_CONDITIONS: male, Wistar, plasma; rat, 3 mg/kg, oral (gavage)
PROPERTY_NAME: Tmax (min)

compound="CC(C)(O)CN1CCC(F)(CNC(=O)c2cc(Br)c(N)c3c2OCCC3)CC1.O=C(O)C(O)C(O)C(=O)O [Example 48]" measurement_unit=min endpoint_result=18.6
compound="Cc1cc2c(N)c(Cl)cc(C(=O)NCC3(F)CCN(CC(C)(C)O)CC3)c2o1.O=C(O)C(O)C(O)C(=O)O [Example 53]" measurement_unit=min endpoint_result=19.8
compound="CC(C)(O)CN1CCC(F)(CNC(=O)c2cc(Cl)c(N)c3ccoc23)CC1 [Example 50]" measurement_unit=min endpoint_result=15
compound="Nc1c(Cl)cc(C(=O)NCC2C3CN(CC4CCOCC4)CC23)c2c1CCCO2.O=C(O)C(O)C(O)C(=O)O (centres unmarked) [Example 3]" measurement_unit=min endpoint_result=25.2
compound="CC(C)(O)CN1CCC(F)(CNC(=O)c2cc(Cl)c(N)c3c2OCCC3)CC1.O=C(O)C(O)C(O)C(=O)O [Example 44]" measurement_unit=min endpoint_result=19.8

###

- EXPERIMENTAL_DETAILS: Rodent pharmacokinetic study
- Assay type: in vivo, Male wistar rats
- MEASUREMENT_CONDITIONS: male, Wistar, plasma; rat, 1 mg/kg, intravenous (bolus)
PROPERTY_NAME: half-life (h)

molecule=CC(C)(O)CN1CCC(F)(CNC(=O)c2cc(Cl)c(N)c3ccoc23)CC1 endpoint_result=1.2
molecule="Nc1c(Cl)cc(C(=O)NCC2C3CN(CC4CCOCC4)CC23)c2c1CCCO2.O=C(O)C(O)C(O)C(=O)O (centres unmarked)" endpoint_result=1.9
molecule=CC(C)(O)CN1CCC(F)(CNC(=O)c2cc(Br)c(N)c3c2OCCC3)CC1.O=C(O)C(O)C(O)C(=O)O endpoint_result=1.5

(I) CC(C)(O)CN1CCC(F)(CNC(=O)c2cc(Cl)c(N)c3c2OCCC3)CC1.O=C(O)C(O)C(O)C(=O)O
(II) Cc1cc2c(N)c(Cl)cc(C(=O)NCC3(F)CCN(CC(C)(C)O)CC3)c2o1.O=C(O)C(O)C(O)C(=O)O
Looking at I and II , which one comes out lower in half-life terms? Please indicate the selected item by its label.
II
(II: 0.8 h, I: 1.5 h)
